# assayed system: rice AGPase L2/S2b (wild type; parent of L2/S2b^QTC and PQ6) (Oryza sativa, UniProt B7EVB8+Q7G065, B7EVB8:N38Q/B7EVB8:K39T/B7EVB8:N40C/B7EVB8:L379F)
# condition summary: read-out: A0.5; allosteric activator; ATP and Glc1P, 10 mM MgCl2, pH 8.0, room temperature; enzyme reduced with 10 mM DTT
measured parameter: pEC50
pEC50 (log units): -log10 of the concentration in mol/L.

Given O=C(O)[C@H](O)COP(=O)(O)O [3-PGA] , state its recorded pEC50.
3.97

---

# assayed system: rice AGPase L2/S2b (wild type; parent of L2/S2b^QTC and PQ6) (Oryza sativa, UniProt B7EVB8+Q7G065)
# Sequence (Q7G065 1-518): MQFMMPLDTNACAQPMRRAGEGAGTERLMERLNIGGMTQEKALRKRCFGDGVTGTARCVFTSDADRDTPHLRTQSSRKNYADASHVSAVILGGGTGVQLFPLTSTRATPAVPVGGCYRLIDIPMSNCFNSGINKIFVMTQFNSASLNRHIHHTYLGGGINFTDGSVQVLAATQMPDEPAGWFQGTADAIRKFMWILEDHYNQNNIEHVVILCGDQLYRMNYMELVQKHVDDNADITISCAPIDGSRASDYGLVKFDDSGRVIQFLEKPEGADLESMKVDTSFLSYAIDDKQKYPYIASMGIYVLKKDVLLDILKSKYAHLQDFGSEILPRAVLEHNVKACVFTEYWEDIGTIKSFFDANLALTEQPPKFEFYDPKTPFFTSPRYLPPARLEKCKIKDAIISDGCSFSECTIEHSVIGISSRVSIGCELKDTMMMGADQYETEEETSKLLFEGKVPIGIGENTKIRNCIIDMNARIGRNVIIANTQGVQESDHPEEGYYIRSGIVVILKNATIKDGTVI
# Sequence (B7EVB8 1-479): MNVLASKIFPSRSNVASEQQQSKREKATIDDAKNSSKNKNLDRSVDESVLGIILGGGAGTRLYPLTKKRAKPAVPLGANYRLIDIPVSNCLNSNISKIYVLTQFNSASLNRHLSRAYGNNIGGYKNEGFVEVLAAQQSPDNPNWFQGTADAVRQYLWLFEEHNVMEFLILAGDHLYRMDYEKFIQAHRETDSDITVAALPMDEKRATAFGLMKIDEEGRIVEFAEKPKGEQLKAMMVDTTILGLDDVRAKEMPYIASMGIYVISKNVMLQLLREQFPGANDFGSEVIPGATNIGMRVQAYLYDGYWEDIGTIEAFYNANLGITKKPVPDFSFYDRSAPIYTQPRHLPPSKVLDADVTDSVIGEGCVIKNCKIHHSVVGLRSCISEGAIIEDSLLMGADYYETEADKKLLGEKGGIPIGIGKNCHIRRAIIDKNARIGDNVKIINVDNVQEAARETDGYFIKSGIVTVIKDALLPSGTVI
# condition summary: read-out: A0.5; allosteric activator; ADP-glucose synthesis with ATP and Glc1P, 10 mM MgCl2, pH 8.0, room temperature; enzyme reduced with 10 mM DTT
measured parameter: pEC50
pEC50 (log units): -log10 of the concentration in mol/L.

Given `O=C(O)[C@H](O)COP(=O)(O)O` , state its recorded pEC50.
3.47
